The reported measurements were obtained from ChEMBL document CHEMBL1681685.

Field: log10 IC50. Provide a value for each of the compounds that follow.
- MEASURED_TARGET: UniProtKB P09917
- Sequence (P09917 whole entry): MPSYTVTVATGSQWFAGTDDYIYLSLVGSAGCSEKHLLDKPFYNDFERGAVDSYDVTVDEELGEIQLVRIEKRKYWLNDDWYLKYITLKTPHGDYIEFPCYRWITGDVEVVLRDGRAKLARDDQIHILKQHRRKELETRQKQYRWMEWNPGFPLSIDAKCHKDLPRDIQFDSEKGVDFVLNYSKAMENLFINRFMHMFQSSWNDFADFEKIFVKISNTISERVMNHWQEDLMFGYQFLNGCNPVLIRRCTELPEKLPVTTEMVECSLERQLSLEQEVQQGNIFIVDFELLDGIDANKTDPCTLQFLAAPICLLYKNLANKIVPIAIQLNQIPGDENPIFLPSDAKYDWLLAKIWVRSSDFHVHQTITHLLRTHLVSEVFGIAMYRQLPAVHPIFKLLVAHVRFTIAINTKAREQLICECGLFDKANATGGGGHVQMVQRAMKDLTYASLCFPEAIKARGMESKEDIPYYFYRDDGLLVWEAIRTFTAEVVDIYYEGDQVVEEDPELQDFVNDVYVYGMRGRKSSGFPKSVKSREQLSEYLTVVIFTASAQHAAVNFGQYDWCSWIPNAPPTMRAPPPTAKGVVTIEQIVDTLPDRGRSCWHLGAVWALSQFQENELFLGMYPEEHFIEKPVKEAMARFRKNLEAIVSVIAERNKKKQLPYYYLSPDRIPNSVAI
- PROTOCOL_DESCRIPTION: Inhibition of 5-lipoxygenase in human PMNL
Form field - Quantity: IC50; Unit: nM; Scale: log10

Please fill in: log10 IC50 reported for O=C(O)C(Sc1nc(Cl)cc(Nc2cccc(-c3ccccc3)c2)n1)c1cccc2ccccc12 (centres undefined) = 2.70

Value of measured log10 IC50 for the entry N#Cc1ccc(-c2ccc(Nc3cc(Cl)nc(SC(C(=O)O)c4cccc5ccccc45)n3)cc2)cc1 (centres undefined) : 2.23

The compound listed as O=C(O)C(Sc1nc(Cl)cc(NCCCc2ccccc2)n1)c1cccc2ccccc12 (centres undefined) has a reported log10 IC50 of 3.26

Looking up O=C(O)C(Sc1nc(Cl)cc(Nc2ccc3c(c2)Cc2ccccc2-3)n1)c1cccc2ccccc12 (centres undefined) , I see its log10 IC50 listed as 2.38

Per the record, O=C(O)C(Sc1nc(Cl)cc(Nc2ccc(C3CCCCC3)cc2)n1)c1cccc2ccccc12 (centres undefined) has log10 IC50 of 2.60

Sure, the documented log10 IC50 for O=C(O)C(Sc1nc(Cl)cc(Nc2ccc(F)cc2)n1)c1cccc2ccccc12 (centres undefined) is 3.49

Sure, the documented log10 IC50 for Cc1ccc(Nc2cc(Cl)nc(SC(C(=O)O)c3cccc4ccccc34)n2)cc1C (centres undefined) is 2.85

log10 IC50 in this record for CC(C)CNc1cc(Cl)nc(SC(C(=O)O)c2cccc3ccccc23)n1 (centres undefined) : 3.40

Form field log10 IC50, entry O=C(O)C(Sc1nc(Cl)cc(NCCc2ccccc2)n1)c1cccc2ccccc12 (centres undefined) : 3.40
